Data origin: patent US20240024426A1

Target: human GLP-1 receptor (human, UniProt P43220 24-463)
Experiment: cell-based or functional assay
Bridges are numbered along the chain shown (N, C = ends). Where no end group is shown, it is not given here. [ ]: non-standard residue; d: D form. The star is where a group is joined. Acetyl(2-(4-imidazolyl)) = O=C(Cc1c[nH]cn1)*; Aib = CC(C)(N)C(=O)O
test-readout: In vitro activity compared with native peptide (%) vs. GLP-1

binder	reported
Y[Aib]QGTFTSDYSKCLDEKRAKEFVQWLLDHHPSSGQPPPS (bridge 16-20) [Triple agonist of SEQ ID NO: 22]	20.1
{Acetyl(2-(4-imidazolyl))}-[Aib]EGTFTSDYSIAMDEIHQKDFVNWLLAQKC (bridge 15-19) [Triple agonist of SEQ ID NO: 90]	7.4
H[Aib]QGTFTSDYSKYLDEKACKDFVQWLLDGGPSSGAPPPS (bridge 16-20) [Triple agonist of SEQ ID NO: 32]	151
